Data origin: PubChem BioAssay AID778

# assayed.system: Cytochrome P450 2C19 (Homo sapiens) (UniProt P33261)
# Sequence (P33261 whole entry, looked up): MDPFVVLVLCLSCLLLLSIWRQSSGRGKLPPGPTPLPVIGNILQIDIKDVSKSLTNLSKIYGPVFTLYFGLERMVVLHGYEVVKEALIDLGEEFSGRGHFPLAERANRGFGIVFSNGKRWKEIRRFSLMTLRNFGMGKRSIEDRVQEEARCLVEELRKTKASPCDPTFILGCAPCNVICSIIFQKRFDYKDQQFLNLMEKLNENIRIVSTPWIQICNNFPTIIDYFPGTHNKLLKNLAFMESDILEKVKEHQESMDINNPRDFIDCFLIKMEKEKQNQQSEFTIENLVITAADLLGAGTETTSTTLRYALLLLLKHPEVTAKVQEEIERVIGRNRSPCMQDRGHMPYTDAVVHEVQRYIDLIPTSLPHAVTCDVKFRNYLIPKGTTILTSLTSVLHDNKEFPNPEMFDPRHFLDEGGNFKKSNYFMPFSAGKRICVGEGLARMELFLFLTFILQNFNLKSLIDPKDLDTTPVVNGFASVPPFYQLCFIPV
# protocol.details: blockers of cytochrome P450 2C19 activity – biochemical, luminescence, ADME assay, primary screen (AID 778);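 also: plate controls were negative control wells for no effect and 2.5 mM tranylcypromine positive control for full effect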
# run.parameters: CYP2C19 Supersomes, luciferin-H EGE luminescence, 30 min; at 5 µM
Hit rate of the full screen: of about 96,000 compounds, about 20,000 (21%) were called active.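 The calls were made as follows: active = CYP2C19 inhibition above a set limit at 5 µM in the primary screen (cut at about 50% in these data); inactive = the rest.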 Not all results are given here.
Lab note: assign the record to one of true (1) = active, false (0) = inactive

-- ask Returns: the outcome recorded for Cc1cc(C(=O)OCC(=O)Nc2ccc(F)c(F)c2)c(C)o1 in this assay.
-- reply true (1)

-- ask Call for entry COc1ccc(/C(O)=C2/C(=O)C(=O)N(c3nc(C)c(C)s3)C2c2ccco2)cc1 (stereo unspecified) :
-- reply true (1)

-- ask Hey, what did the test say about CCc1nnc(NC(=O)CCC(=O)NCc2ccccc2OC)s1 ?
-- reply false (0)

-- ask How was O=C(CSc1ncccn1)NC(=O)NCc1ccccc1 classified in this test?
-- reply false (0)

-- ask Would you mind telling me which call this test gave Oc1c(C(c2ccco2)N2CCC3(CC2)OCCO3)sc2ncnn12 (stereo unspecified) ?
-- reply true (1)

-- ask # outcome recorded in this test, key = Cc1nnc(SCC(=O)N/N=C/c2cn(-c3ccccc3)nc2-c2ccc(F)cc2)n1-c1ccccc1
-- reply false (0)

-- ask // param item: CC(C)CCNC(=O)C1CCCN(S(=O)(=O)c2ccc(F)cc2)C1 (stereo unspecified) ; yields the recorded call
-- reply false (0)

-- ask Which result was noted for this compound in the test: Oc1c(C(c2cccs2)N2CCN(c3ccc(F)cc3)CC2)sc2ncnn12 (stereo unspecified)
-- reply true (1)

-- ask Recorded test call requested for Nc1nonc1C(=O)NCCc1ccccc1
-- reply false (0)

-- ask Hello, I am checking results. What call was entered for Cc1ccc(C(=O)N/N=C/c2sc(=O)n(Cc3cccc(C(=O)O)c3)c2Cl)cc1 ?
-- reply false (0)

-- ask Can you look up the reported call for O=C(Cn1cncn1)N/N=C/c1c2ccccc2cc2ccccc12 for me?
-- reply true (1)

-- ask # lookup: test call for O=C(O)CSc1nccn1-c1cccc(Cl)c1
-- reply false (0)

-- ask Just curious, what result did O=[N+]([O-])c1ccccc1/C=N/n1c(COc2ccccc2)n[nH]c1=S get here?
-- reply false (0)

-- ask Could you kindly confirm the outcome this assay logged for Cc1ccnc(N2CCCC(C(=O)Nc3cc(F)ccc3C)C2)n1 (stereo unspecified) ?
-- reply true (1)

-- ask Hello, I am checking results. What call was entered for CCCOc1ccccc1C(=O)NCCCC(=O)O ?
-- reply false (0)

-- ask Recorded test call requested for O=C(Nc1ccc2sc3ccccc3c(=O)c2c1)c1ccccc1Cl
-- reply false (0)
